Endpoint: pIC50. System: CK1α (Homo sapiens). Items follow.
Sequence (P48729 whole entry): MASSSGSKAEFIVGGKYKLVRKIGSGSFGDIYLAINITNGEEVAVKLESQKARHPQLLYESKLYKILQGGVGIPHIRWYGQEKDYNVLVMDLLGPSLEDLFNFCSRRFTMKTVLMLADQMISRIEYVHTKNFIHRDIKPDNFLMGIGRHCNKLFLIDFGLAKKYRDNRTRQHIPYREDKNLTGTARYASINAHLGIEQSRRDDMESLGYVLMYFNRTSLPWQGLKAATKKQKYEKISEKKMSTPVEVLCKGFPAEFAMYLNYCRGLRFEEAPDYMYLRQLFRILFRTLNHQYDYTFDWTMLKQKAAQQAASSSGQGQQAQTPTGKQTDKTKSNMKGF
Please report pIC50 as the negative decimal logarithm of the molar concentration, giving only the number.

Lookup: Given Fc1cccc(-n2cnc3c(NCc4nc5ccc(F)c(F)c5[nH]4)nc(N4CCOCC4)nc32)c1 [SR-3029, reference compound] , report its pIC50 on CK1α (Homo sapiens).
Found: 6.00

Lookup: Given CNCc1cc(-c2cn(C)nc2-c2ccc(F)cc2)ccn1 , report its pIC50 on CK1α (Homo sapiens).
Found: 5.75

* * *

Endpoint: IC50. System: p38α (Homo sapiens). Items follow.
Sequence (Q16539 whole entry): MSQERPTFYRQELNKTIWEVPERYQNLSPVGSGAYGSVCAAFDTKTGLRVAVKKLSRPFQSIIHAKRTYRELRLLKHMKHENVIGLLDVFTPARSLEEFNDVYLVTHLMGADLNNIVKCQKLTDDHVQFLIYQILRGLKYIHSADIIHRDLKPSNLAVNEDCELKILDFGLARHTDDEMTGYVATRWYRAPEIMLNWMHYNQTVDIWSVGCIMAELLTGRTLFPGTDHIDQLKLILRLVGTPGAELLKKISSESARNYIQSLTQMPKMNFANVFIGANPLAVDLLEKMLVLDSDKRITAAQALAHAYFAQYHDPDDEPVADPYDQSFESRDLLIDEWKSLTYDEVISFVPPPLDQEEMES
Returns: string containing the numeric result and its unit.

Solved entries (count: 2):
{"columns": ["compound", "reported"],
 "data": [
  ["CNCc1cc(-c2cn(C)nc2-c2ccc(F)cc2)ccn1 [Compound I]", "3070 nM"],
  ["Fc1cccc(-n2cnc3c(NCc4nc5ccc(F)c(F)c5[nH]4)nc(N4CCOCC4)nc32)c1 [SR-3029, reference compound]", "1000 nM"]
]}

Now consider the entry below.
Lookup: Given COCCN1Cc2nccc(-c3cn(C)nc3-c3ccc(F)cc3)c2C1=O [Compound G] , report its IC50 on p38α (Homo sapiens).
Found: 712 nM

Origin of measurements: patent US20210177847A1
